target-of-assay: AgLsb4
protocol-summary: SPOT peptide array binding signal intensity (averaged, normalized) (arbitrary units (background-subtracted, floor 0; scale differs between SH3 domains)); higher = stronger binding of the SH3 domain to the peptide
endpoint-name: SPOT peptide array binding signal intensity

| binder | endpoint-value |
| --- | --- |
| LYKRKPILLPDPKPL | 1.5 |
| NNFYRPLLRSVLVLL | 10.5 |
| VTHRLRISIPGITGR | 430 |
| SKSRLLIELPEGFFT | 46 |
